Would you mind telling me the reported efficacy in % of each entry?
system: Fusarium graminearum; format: in vivo; conditions: in vivo

A selection of reference data follows.
[
  {
    "molecule": "CC(=O)Nc1cc(-c2c(-c3ccccc3)nn3c2CCCC3)ccn1 [Example 19]",
    "systemName": "Fusarium graminearum",
    "efficacy in %": "100%"
  },
  {
    "molecule": "CCC(=O)Nc1cc(-c2c(-c3ccsc3)nn3c2CCCC3)ccn1 [Example 59]",
    "systemName": "Fusarium graminearum",
    "efficacy in %": "94%"
  },
  {
    "molecule": "CC(C)CC(=O)Nc1cc(-c2c(-c3ccccc3)nn3c2CCCC3)ccn1 [Example 31]",
    "systemName": "Fusarium graminearum",
    "efficacy in %": "100%"
  },
  {
    "molecule": "CC(C)C(=O)Nc1cc(-c2c(-c3ccc(F)cc3)nn3c2CCC3C)ccn1 (centres unmarked) [Example 77]",
    "systemName": "Fusarium graminearum",
    "efficacy in %": "90%"
  }
]

Give efficacy in % for all molecules that follow.
1. O=C(Nc1cc(-c2c(-c3ccc(F)cc3)nn3c2CCCC3)ccn1)c1ccccc1 [Example 32]
2. CCC(=O)Nc1cc(-c2c(-c3ccc(F)cc3)nn3c2CCC3C)ccn1 (centres unmarked) [Example 76]
3. O=C(Nc1cc(-c2c(-c3ccsc3)nn3c2CCCC3)ccn1)C1CC1 [Example 65]
4. CC1CCc2c(-c3ccncc3F)c(-c3ccc(F)cc3)nn21 (centres unmarked) [Example 117]

Data returned:
["86%", "90%", "83%", "100%"]

====

Task for the reader: assign each of the following molecules its reported % inhibition of the fungal growth of Fusarium graminearum at 50 μM.
system: Fusarium graminearum; experiment: microbe, parasite or virus in culture; type: cell-based; conditions: 50 μM
Give bare numbers, in %.

[
  {
    "chemSmiles": "C[C@H](O)C(=O)Nc1cc(-c2c(-c3ccccc3)nn3c2CCCC3)ccn1",
    "valueObserved": 92
  },
  {
    "chemSmiles": "CCC(=O)Nc1cc(-c2c(-c3ccccc3)nn3c2CCCC3)ccn1",
    "valueObserved": 100
  },
  {
    "chemSmiles": "CC(C)C(=O)Nc1cc(-c2c(-c3ccccc3)nn3c2CCCC3)ccn1",
    "valueObserved": 100
  },
  {
    "chemSmiles": "COCC(=O)Nc1cc(-c2c(-c3ccc(F)cc3)nn3c2CCCC3)ccn1",
    "valueObserved": 97
  },
  {
    "chemSmiles": "Fc1cc(-c2c(-c3ccc(Cl)cc3)nn3c2CCC3)ccn1",
    "valueObserved": 17
  }
]

// for each molecule in input: emit % inhibition of the fungal growth of Fusarium graminearum at 50 μM
1. Fc1ccc(-c2nn3c(c2-c2ccncc2)CCC3)cc1
2. O=CNc1cc(-c2c(-c3ccc(F)cc3)nn3c2CCCC3)ccn1
3. O=CNc1cc(-c2c(-c3ccccc3)nn3c2CCCC3)ccn1

Data returned:
100
94
93

Go through the list and state % inhibition of the fungal growth of Fusarium graminearum at 50 μM for each entry.
1. COC(=O)Nc1cc(-c2c(-c3ccccc3)nn3c2CCCC3)ccn1
2. Clc1ccc(-c2nn3c(c2-c2ccncc2)CCC3)cc1
3. COCC(=O)Nc1cc(-c2c(-c3ccccc3)nn3c2CCCC3)ccn1
4. FC(F)(F)c1cccc(-c2nn3c(c2-c2ccncc2)CCC3)c1

Data returned:
1: 56; 2: 92; 3: 97; 4: 100

Each molecule below has a recorded value; state its % inhibition of the fungal growth of Fusarium graminearum at 50 μM.
1. Fc1cccc(-c2nn3c(c2-c2ccnc(F)c2)CCC3)c1
2. c1ccc(-c2nn3c(c2-c2ccncc2)CCC3)cc1
3. CCC(=O)Nc1cc(-c2c(-c3ccsc3)nn3c2CCCC3)ccn1
4. CC(C)(O)C(=O)Nc1cc(-c2c(-c3ccccc3)nn3c2CCCC3)ccn1
5. O=C(Nc1cc(-c2c(-c3ccccc3)nn3c2CCCC3)ccn1)C1CC1
6. c1ccc(-c2nn3c(c2-c2ccncc2)CCCC3)cc1
7. Cc1cc(-c2c(-c3ccc(F)cc3)nn3c2CCCC3)ccn1

Data returned:
[0, 87, 100, 57, 97, 100, 70]

Would you mind giving % inhibition of the fungal growth of Fusarium graminearum at 50 μM for every molecule in the list below?
1. CC(C)CC(=O)Nc1cc(-c2c(-c3ccsc3)nn3c2CCCC3)ccn1
2. O=C(Cc1ccccc1)Nc1cc(-c2c(-c3ccc(F)cc3)nn3c2CCCC3)ccn1
3. O=C(Nc1cc(-c2c(-c3ccsc3)nn3c2CCCC3)ccn1)C1CC1
4. c1cc(-c2c(-c3ccsc3)nn3c2CCC3)ccn1

Data returned:
[100, 98, 100, 52]

====

tested on: Septoria tritici; assay: Septoria tritici test (wheat)/protective; assay type: in vivo; conditions: in vivo
valueType: efficacy in % (%)
Answers are plain numbers, in %.

Answered cases to consult:
[
  {
    "molecule": "CCC(=O)Nc1cc(-c2c(-c3ccc(F)cc3)nn3c2CCC3C)ccn1 (centres unmarked)",
    "valueObserved": 100
  },
  {
    "molecule": "CCC(=O)Nc1cc(-c2c(-c3ccccc3)nn3c2CCCC3)ccn1",
    "valueObserved": 100
  },
  {
    "molecule": "CC(C)(O)C(=O)Nc1cc(-c2c(-c3ccc(F)cc3)nn3c2CCCC3)ccn1",
    "valueObserved": 90
  }
]

Dear colleague, could you send me efficacy in % for each of the items below? Thanks.
1. Fc1ccc(-c2nn3c(c2-c2ccncc2)CCCCC3)cc1
2. CC1CCc2c(-c3ccncc3F)c(-c3ccc(F)cc3)nn21 (centres unmarked)

Data returned:
[100, 100]

For each listed entry, give its efficacy in %.
1. O=CNc1cc(-c2c(-c3ccc(F)cc3)nn3c2CCCC3)ccn1
2. O=C(Nc1cc(-c2c(-c3ccc(F)cc3)nn3c2CCCC3)ccn1)c1ccccc1
3. CC(C)C(=O)Nc1cc(-c2c(-c3ccc(F)cc3)nn3c2CCCC3)ccn1
4. O=C(Nc1cc(-c2c(-c3ccsc3)nn3c2CCCC3)ccn1)C1CC1

Data returned:
[100, 100, 100, 90]

====

test system: Pyrenophora teres; assay: Pyrenophora teres test (barley)/protective; type: in vivo; details: in vivo
Exercise: state measured efficacy in % for each of the molecules provided.
Numbers only, in %.

Record excerpt, results attached:
[
  {
    "molecule": "Fc1ccc(-c2nn3c(c2-c2ccncc2)CCCCC3)cc1",
    "unitOfMeasurement": "%",
    "valueObserved": 95
  },
  {
    "molecule": "CC(C)CC(=O)Nc1cc(-c2c(-c3ccc(F)cc3)nn3c2CCOC3)ccn1",
    "unitOfMeasurement": "%",
    "valueObserved": 95
  },
  {
    "molecule": "c1ccc(-c2nn3c(c2-c2ccncc2)CCCC3)cc1",
    "unitOfMeasurement": "%",
    "valueObserved": 94
  },
  {
    "molecule": "CC(C)CC(=O)Nc1cc(-c2c(-c3ccsc3)nn3c2CCCC3)ccn1",
    "unitOfMeasurement": "%",
    "valueObserved": 100
  }
]

Each molecule below has a recorded value; state its efficacy in %.
1. CC1(C)OCCc2c(-c3ccnc(NC(=O)C4CC4)c3)c(-c3ccc(F)cc3)nn21
2. O=CNc1cc(-c2c(-c3ccc(F)cc3)nn3c2CCCC3)ccn1
3. CC1CCc2c(-c3ccncc3)c(-c3ccc(F)cc3)nn21 (stereo not shown)
4. O=C(Nc1cc(-c2c(-c3ccccc3)nn3c2CCCC3)ccn1)c1ccsc1
5. CC(C)C(=O)Nc1cc(-c2c(-c3cccs3)nn3c2CCCC3)ccn1
6. CC(C)C(=O)Nc1cc(-c2c(-c3ccc(F)cc3)nn3c2CCCC3)ccn1
7. CC(C)Nc1cc(-c2c(-c3ccc(F)cc3)nn3c2CCC3)ccn1
8. O=C(Nc1cc(-c2c(-c3ccc(F)cc3)nn3c2CCCC3)ccn1)c1ccsc1

Data returned:
[94, 89, 100, 90, 90, 100, 80, 90]

====

test system: DON/AcDON production; assay: microbe, parasite or virus in culture; format: cell-based, Fusarium graminearum; conditions: 7 days at 28° C.
Consider the following compounds; for each one, report its % inhibition of DON/AcDON at 50 μM.
Give bare numbers, in %.

[
  {
    "chemSmiles": "COCC(=O)Nc1cc(-c2c(-c3ccsc3)nn3c2CCCC3)ccn1",
    "unitOfMeasurement": "%",
    "valueObserved": 100
  },
  {
    "chemSmiles": "CC(=O)Nc1cc(-c2c(-c3ccccc3)nn3c2CCCC3)ccn1",
    "unitOfMeasurement": "%",
    "valueObserved": 100
  },
  {
    "chemSmiles": "CC(C)CC(=O)Nc1cc(-c2c(-c3ccsc3)nn3c2CCCC3)ccn1",
    "unitOfMeasurement": "%",
    "valueObserved": 100
  },
  {
    "chemSmiles": "c1ccc(-c2nn3c(c2-c2ccncc2)CCCC3)cc1",
    "unitOfMeasurement": "%",
    "valueObserved": 99
  },
  {
    "chemSmiles": "c1ccc(-c2nn3c(c2-c2ccncc2)CCC3)cc1",
    "unitOfMeasurement": "%",
    "valueObserved": 100
  }
]

Give one value of % inhibition of DON/AcDON at 50 μM per listed compound.
1. Fc1cccc(-c2nn3c(c2-c2ccnc(F)c2)CCC3)c1
2. O=C(Nc1cc(-c2c(-c3ccccc3)nn3c2CCCC3)ccn1)C1CC1

Data returned:
[100, 100]
